- System: H22 cells
- procedure-details: cells
- protocol-conditions: Mus musculus, H22, 48 h, read-out: IC50, H22
measured-metric: log10 of IC50 (log10 of the value in nM)
Each number you see is log10 of IC50, and the unit inside the log is nM.

Observed log10 of IC50 on H22 cells for COC(=O)CCC[C@@H]1[C@H]2CCCN3CCC[C@H](CN1P(=O)(Oc1ccc(OC)cc1)N(CCCl)CCCl)[C@@H]23 (stereo partly shown) [Compound 7b] , please.
3.42

Observed log10 of IC50 on H22 cells for COc1cccc2c1C(=O)c1c(O)c3c(c(O)c1C2=O)C[C@@](O)(C(=O)CO)C[C@@H]3O[C@H]1C[C@H](N)[C@H](O)[C@H](C)O1 [Dox, Doxorubicin, reference compound] , please.
4.56

Observed log10 of IC50 on H22 cells for COC(=O)CCC[C@@H]1[C@H]2CCCN3CCC[C@H](CN1P(=O)(Oc1ccc(Cl)cc1)N(CCCl)CCCl)[C@@H]23 (stereo partly shown) [Compound 7c] , please.
3.00

Observed log10 of IC50 on H22 cells for COC(=O)CCC[C@@H]1[C@H]2CCCN3CCC[C@H](CN1P(=O)(Oc1ccccc1)N(CCCl)CCCl)[C@@H]23 (stereo partly shown) [Compound 7e] , please.
3.27

Observed log10 of IC50 on H22 cells for COC(=O)CCC[C@@H]1[C@H]2CCCN3CCC[C@H](CN1P(=O)(Oc1ccc(C)cc1)N(CCCl)CCCl)[C@@H]23 (stereo partly shown) [Compound 7a] , please.
3.34

Switching to the query record.
Observed log10 of IC50 on H22 cells for COC(=O)CCC[C@@H]1[C@H]2CCCN3CCC[C@H](CN1P(=O)(Oc1ccc([N+](=O)[O-])cc1)N(CCCl)CCCl)[C@@H]23 (stereo partly shown) [Compound 7d] , please.
3.26

###

- Tested on: S180 cells
- procedure-details: cells
- protocol-conditions: S-180, 48 h, read-out: IC50, S180
measured-metric: pIC50
pIC50 here is simply -log10 of the concentration when that concentration is written in mol/L.

These solved cases illustrate the format of a correct answer.
Need pIC50 of COC(=O)CCC[C@@H]1[C@H]2CCCN3CCC[C@H](CN1P(=O)(Oc1ccccc1)N(CCCl)CCCl)[C@@H]23 (stereo partly shown) , thanks.
5.44

Need pIC50 of COc1cccc2c1C(=O)c1c(O)c3c(c(O)c1C2=O)C[C@@](O)(C(=O)CO)C[C@@H]3O[C@H]1C[C@H](N)[C@H](O)[C@H](C)O1 [Dox, Doxorubicin, reference compound] , thanks.
4.53

Need pIC50 of COC(=O)CCC[C@@H]1[C@H]2CCCN3CCC[C@H](CN1P(=O)(Oc1ccc([N+](=O)[O-])cc1)N(CCCl)CCCl)[C@@H]23 (stereo partly shown) , thanks.
5.70

Need pIC50 of COC(=O)CCC[C@@H]1[C@H]2CCCN3CCC[C@H](CN1P(=O)(Oc1ccc(C)cc1)N(CCCl)CCCl)[C@@H]23 (stereo partly shown) , thanks.
5.54

Need pIC50 of COC(=O)CCC[C@@H]1[C@H]2CCCN3CCC[C@H](CN1P(=O)(Oc1ccc(Cl)cc1)N(CCCl)CCCl)[C@@H]23 (stereo partly shown) , thanks.
5.69

Switching to the query record.
Need pIC50 of COC(=O)CCC[C@@H]1[C@H]2CCCN3CCC[C@H](CN1P(=O)(Oc1ccc(OC)cc1)N(CCCl)CCCl)[C@@H]23 (stereo partly shown) , thanks.
5.46
